- tested target: Human ST2-fc (human) (UniProt Q01638)
- protocol: competition ELISA, coated ST2-fc, competitor IL33-his
Label key: rule met means Relative activity compared with CNTO7160 under 200%; rule not met means Relative activity compared with CNTO7160 of 200% or more.

[
  {
    "binder": "5888-116-H0L1 (antibody, human IgG4 S228P, kappa, V domains shown, Humanized antibody) VH: QVQLVQSGAEVKKPGASVKVSCKASGYTFTDSEMYWVRQAPGQGLEWMGAIDPETGDTAFNQKFKGRVTMTRDTSTSTVYMELSSLRSEDTAVYYCARAFDNDNDDGFAYWGQGTMVTVSS VL: DIQMTQSPSSLSASVGDRVTITCSASSSVNYMHWYQQKPGKAPKRLIYDTSKLASGVPSRFSGSGSGTDYTFTISSLQPEDAATYYCQQWSSNPLTFGQGTKLEIKR",
    "class label": "rule not met"
  },
  {
    "binder": "5888-379-H1L1 (antibody, human IgG4 S228P, kappa, V domains shown) VH: QVQLVQSGAEVKKPGASVKVSCKASGYTFINYGMNWVRQAPGQRLEWMGWINTYIGEPTYGDNFKGRVTITRDTSASTAYMELSSLRSEDTAVYYCAREGEGFAYWGQGTLVTVSS VL: DIQMTQSPSSLSASVGDRVTITCKSSQSLLYSGNQNNYLAWYQQKPGKVPKLLIYGASTRESGVPSRFSGSGSGTDFTLTISSLQPEDLATYYCQNDHSYPYTFGGGTKVEIKR",
    "class label": "rule not met"
  },
  {
    "binder": "5886-156-H1L0 (antibody, human IgG4 S228P, kappa, V domains shown, Humanized antibody expressed in CHO-K1, purified by protein A) VH: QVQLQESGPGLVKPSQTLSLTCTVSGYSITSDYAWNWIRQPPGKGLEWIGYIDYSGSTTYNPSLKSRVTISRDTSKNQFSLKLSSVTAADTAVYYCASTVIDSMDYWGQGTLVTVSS VL: DIVLTQSPASLAVSPGQRATITCRASKSVSTSGHSYMHWYQQKPGQPPKLLIYLASNLESGVPARFSGSGSGTDFTLTINPVEANDTANYYCQHSREFPFTFGQGTKVEIKR",
    "class label": "rule met"
  },
  {
    "binder": "5888-379-H0L0 (antibody, human IgG4 S228P, kappa, V domains shown) VH: QVQLVQSGAEVKKPGASVKVSCKASGYTFINYGMNWVRQAPGQRLEWMGWINTYIGEPTYGDNFKGRVTITRDTSASTAYMELSSLRSEDTAVYYCAREGDGFAYWGQGTLVTVSS VL: DIQMTQSPSSLSASVGDRVTITCKSSQSLLYSGNQNNYLAWYQQKPGKVPKLLIYGASTRESGVPSRFSGSGSGTDFTLTISSLQPEDVATYYCQNDHSYPYTFGGGTKVEIKR",
    "class label": "rule met"
  },
  {
    "binder": "5886-156-H1L1 (antibody, human IgG4 S228P, kappa, V domains shown, Humanized antibody) VH: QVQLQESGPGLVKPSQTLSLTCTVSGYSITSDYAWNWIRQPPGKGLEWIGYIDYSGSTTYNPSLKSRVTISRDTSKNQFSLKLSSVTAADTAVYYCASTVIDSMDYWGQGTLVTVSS VL: DIVLTQSPASLAVSPGQRATITCRASKSVSTSGHSYMHWYQQKPGQPPKLLIYLASNLESGVPARFSGSGSGTDFTLTINPVEANDAANYYCQHSREFPFTFGQGTKVEIKR",
    "class label": "rule met"
  },
  {
    "binder": "5888-116-H1L1 (antibody, human IgG4 S228P, kappa, V domains shown) VH: QVQLVQSGAEVKKPGASVKVSCKASGYTFTDSEMYWVRQAPGQGLEWMGAIDPETGDTAFNQKFKGRVTMTADKSTSTAYMELSSLRSEDTAVYYCTRAFDNDNDDGFAYWGQGTMVTVSS VL: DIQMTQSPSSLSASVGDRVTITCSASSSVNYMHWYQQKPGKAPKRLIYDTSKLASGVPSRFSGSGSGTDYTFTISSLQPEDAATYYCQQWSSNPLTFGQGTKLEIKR",
    "class label": "rule not met"
  }
]

From: patent US12624112
